The origin of these recorded values is patent US20250147039A1.

# PROTOCOL SUMMARY: Dissociation of chelates in aq. 1.0M HCl at 80° C. (acid decomplexation kinetic inertness) (Chart 18)
# Type: physicochemical
# TEST CONTEXT: 1 month
I'd appreciate it if you could supply fraction of intact chelate values for the items below.
Write the value in % as a bare number.

[Q] # fraction of intact chelate lookup, item O=C1C[N@@]2CC[N@]3CC[N@@](CC[N@](CC2)Cc2cccc(n2)-c2cnnn2Cc2cc(-c4ccccc4)cc(n2)C3)CC(=O)[O][Er][O]1 [TD865]
[A] 99

[Q] # fraction of intact chelate lookup, item O=C1C[N@@]2CC[N@]3CC[N@@](CC[N@](CC2)Cc2cccc(n2)-c2cnnn2Cc2cc(-c4ccccc4)cc(n2)C3)CC(=O)[O][La][O]1 [TD651]
[A] 0

[Q] # fraction of intact chelate lookup, item O=C1C[N@@]2CC[N@]3CC[N@@](CC[N@](CC2)Cc2cccc(n2)-c2cnnn2Cc2cc(-c4ccccc4)cc(n2)C3)CC(=O)[O][Eu][O]1 [TD599]
[A] 0

[Q] # fraction of intact chelate lookup, item O=C1C[N@@]2CC[N@]3CC[N@@](CC[N@](CC2)Cc2cccc(n2)-c2cnnn2Cc2cc(-c4ccccc4)cc(n2)C3)CC(=O)[O][Ho][O]1 [TD648]
[A] 96

[Q] # fraction of intact chelate lookup, item O=C1C[N@@]2CC[N@]3CC[N@@](CC[N@](CC2)Cc2cccc(n2)-c2cnnn2Cc2cc(-c4ccccc4)cc(n2)C3)CC(=O)[O][Sm][O]1 [TD867]
[A] 0

[Q] # fraction of intact chelate lookup, item O=C1C[N@@]2CC[N@]3CC[N@@](CC[N@](CC2)Cc2cccc(n2)-c2cnnn2Cc2cc(-c4ccccc4)cc(n2)C3)CC(=O)[O][Y][O]1 [TD649]
[A] 92
